Competition Binding, 1st exp. (ranking) reference
- target_under_test: PD-1
- protocol_text: competition binding, 1st experiment; rank among the clones; competitor not given
Form rule: numeric answer, no unit written next to it.

// below: answered binders
Clone No. 3 (antibody, human IgG4 S228P, kappa, V domains shown) VH: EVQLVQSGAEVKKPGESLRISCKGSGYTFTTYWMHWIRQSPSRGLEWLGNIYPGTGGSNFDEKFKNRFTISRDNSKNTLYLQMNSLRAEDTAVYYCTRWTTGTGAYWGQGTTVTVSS VL: DIQMTQSPSSLSASVGDRVTITCKSSQSLLDSGNQKNFLTWYQQKPGQAPRLLIYWASTRESGIPPRFSGSGYGTDFTLTINNIESEDAAYYFCQNDYSYPYTFGQGTKVEIKR
8
Clone No. 1 (antibody, human IgG4 S228P, kappa, V domains shown) VH: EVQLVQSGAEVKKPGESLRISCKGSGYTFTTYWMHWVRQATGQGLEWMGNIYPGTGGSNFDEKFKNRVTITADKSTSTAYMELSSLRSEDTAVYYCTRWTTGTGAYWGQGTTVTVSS VL: EIVLTQSPATLSLSPGERATLSCKSSQSLLDSGNQKNFLTWYQQKPGQAPRLLIYWASTRESGVPSRFSGSGSGTEFTLTISSLQPDDFATYYCQNDYSYPYTFGQGTKVEIKR
7

Continue with the binder presented below.
Exercise: Report Competition Binding, 1st exp. (ranking) for Clone No. 12 (antibody, human IgG4 S228P, kappa, V domains shown) VH: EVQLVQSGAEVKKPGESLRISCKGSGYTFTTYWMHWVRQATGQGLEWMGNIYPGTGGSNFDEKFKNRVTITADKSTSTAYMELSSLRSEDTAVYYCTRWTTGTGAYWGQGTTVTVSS VL: DIQMTQSPSSLSASVGDRVTITCKSSQSLLDSGNQKNFLTWYLQKPGQSPQLLIYWASTRESGVPSRFSGSGSGTDFTFTISSLEAEDAATYYCQNDYSYPYTFGQGTKVEIKR please.
Key: 8

Each recorded value in this set is attributed to patent US20180228802A1.
